Where these numbers come from: the Human Domainome abundance scans (Beltran et al. 2025)

B1: POU domain, class 4, transcription factor 1, residues 266 to 347; numbered along this chain, Q01851 (parent)
chain: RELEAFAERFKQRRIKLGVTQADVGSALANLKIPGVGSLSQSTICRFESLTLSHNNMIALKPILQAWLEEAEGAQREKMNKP

Variants of: B1
Experiment: abundance fitness (aPCA) (normalised: wild type 0, dead -1); higher = more abundant; growth selection in yeast, the domain comes from the species named
Conditions: Homo sapiens
Property measured: abundance fitness
The reply should be a number, written without any unit.

{"Polymer sequence": "RELEAFAERFKQRRIKLGVTQADVGSALANLKIPGVGSLSQSTICRFESLTLSHNNMIALKPELQAWLEEAEGAQREKMNKP [I63E]", "abundance fitness": -0.295}
{"Polymer sequence": "RELEAFAERFKQRRIKLGVTQADVGSALANLKIPGVGSLSQQTICRFESLTLSHNNMIALKPILQAWLEEAEGAQREKMNKP [S42Q]", "abundance fitness": -0.113}
{"Polymer sequence": "RELEAFAERFKQRRIKLGVTQADVGSALANLKIPGVGSLSQSTICDFESLTLSHNNMIALKPILQAWLEEAEGAQREKMNKP [R46D]", "abundance fitness": 0.014}
{"Polymer sequence": "RELEAFAERFKQRRIKLGVTQADVGSALANLKIPGVGSLSQSTICRFESLTLSHNNMIALKPILQAWLEEAEGAQREQMNKP [K78Q]", "abundance fitness": -0.045}
{"Polymer sequence": "RELEAFAERFKQRYIKLGVTQADVGSALANLKIPGVGSLSQSTICRFESLTLSHNNMIALKPILQAWLEEAEGAQREKMNKP [R14Y]", "abundance fitness": -0.884}

Ask: # abundance fitness lookup, item RALEAFAERFKQRRIKLGVTQADVGSALANLKIPGVGSLSQSTICRFESLTLSHNNMIALKPILQAWLEEAEGAQREKMNKP [E2A]
Result: -0.267

Ask: # abundance fitness lookup, item RELEAFAERFKQRWIKLGVTQADVGSALANLKIPGVGSLSQSTICRFESLTLSHNNMIALKPILQAWLEEAEGAQREKMNKP [R14W]
Result: -1.02

Ask: # abundance fitness lookup, item RELEAFAERFKQRRIKLGVTQADVGSALANLKIPGVGSLSQSTICRFESLTLSHNNMIALKPILQAWLEEAEGDQREKMNKP [A74D]
Result: -0.027

Ask: # abundance fitness lookup, item RELEAFAERFKQRRIKLGVTQADVGSALANLKIPGVGSLSQSTICRFESLTLSHNNMIALKPILQAVLEEAEGAQREKMNKP [W67V]
Result: -0.412

Ask: # abundance fitness lookup, item RELEAFAERFKQRRIFLGVTQADVGSALANLKIPGVGSLSQSTICRFESLTLSHNNMIALKPILQAWLEEAEGAQREKMNKP [K16F]
Result: -0.138
